# Assayed System: adenosine A2B receptor (Homo sapiens (Human), UniProt P29275)
# Sequence (P29275 whole entry): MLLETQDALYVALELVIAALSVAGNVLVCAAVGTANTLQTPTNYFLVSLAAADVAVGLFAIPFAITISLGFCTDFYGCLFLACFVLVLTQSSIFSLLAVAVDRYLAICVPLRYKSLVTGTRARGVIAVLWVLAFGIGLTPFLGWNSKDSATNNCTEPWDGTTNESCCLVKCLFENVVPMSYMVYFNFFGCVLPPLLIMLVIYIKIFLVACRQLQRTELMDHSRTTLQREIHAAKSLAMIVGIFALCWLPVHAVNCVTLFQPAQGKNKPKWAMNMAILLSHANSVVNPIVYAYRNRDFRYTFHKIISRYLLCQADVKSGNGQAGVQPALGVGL
# Assay Comment: Adenosine receptor activity assay (Table 1), A2B activity
# Format: biochemical
# Conditions: A2A activity to the A2B activity; A2A/A2B
Assay Endpoint: Ratio

# Ratio of CNC1CN(C(=O)c2nc(N[C@@H](C)c3cncc(F)c3)nc3cc(C)sc23)C1 = 207.31

The reported Ratio of the molecule C[C@H](Nc1nc(C(=O)N2CC(NC(=O)Nc3ccccc3)C2)c2sccc2n1)c1cncc(F)c1 was 2.22

P: Cc1cc2nc(N[C@@H](C)c3ccccn3)nc(C(=O)N3CC(C(=O)OC(C)(C)C)C3)c2s1
Q: CCC(CC)NC(=O)NC1CN(C(=O)c2nc(N[C@@H](C)c3cncc(F)c3)nc3ccsc23)C1
R: CC(=O)N[C@@H]1CCN(C(=O)c2nc(N[C@@H](C)c3cncc(F)c3)nc3cc(C)sc23)C1
S: CO[C@@H]1CCN(C(=O)c2nc(N[C@@H](C)c3ccccn3)nc3c(C)csc23)C1
T: CC(C)C(=O)NCC1CN(C(=O)c2nc(N[C@@H](C)c3cncc(F)c3)nc3ccsc23)C1
Qu. Ordering criterion: Ratio; begin with the maximum. Order the labels as requested and give them as your answer.
Ans. R, T, P, S, Q

###

# Assay Comment: Hepatocyte (Hep) intrinsic clearance, rat
# Type: in vitro ADME
# Conditions: hepatocytes
Assay Endpoint: hepatocyte CLint (µL/min/1e6 cells)

// C[C@H](Nc1nc(C(=O)N2CC[C@@H](F)C2)c2sccc2n1)c1ccccn1 : hepatocyte CLint value = 45.3

Input C[C@H](Nc1nc(C(=O)N2CCC2)c2sccc2n1)c1cccnc1 . Output hepatocyte CLint: 37.7

Per the records, this molecule ( C[C@@H]1CCN(C(=O)c2nc(N[C@@H](C)c3ccccn3)nc3ccsc23)C1 ) has hepatocyte CLint equal to 55.1

I: CO[C@@H]1CCN(C(=O)c2nc(N[C@@H](C)c3cccnc3)nc3ccsc23)C1
II: C[C@H](Nc1nc(C(=O)N2CC[C@@H](O)C2)c2sccc2n1)c1cccnc1
III: C[C@H](Nc1nc(C(=O)N2CC[C@@H](O)C2)c2sccc2n1)c1ccccn1
IV: O=C(NC1CC(O)C1)c1nc(NCc2cncc(F)c2)nc2ccsc12 (centres unmarked)
Qu. List items by hepatocyte CLint in falling order. Please list the labels in the order you were asked to rank them.
Ans. I, II, IV, III

###

# Assayed System: adenosine A2B receptor (Homo sapiens (Human), UniProt P29275)
# Assay Comment: Adenosine receptor activity assay (Table 1), A2B activity
# Type: biochemical
# Conditions: A2A activity to A2B activity (A2A/A2B)
Assay Endpoint: Ratio

Solved entries:
Per the records, this molecule ( CC(C)(C)OC(=O)N[C@@H]1CCN(C(=O)c2nc(NCc3cc(F)cc(F)c3)nc3ccsc23)C1 ) has Ratio equal to 16.55

Ratio for Cc1cc2nc(N[C@@H](C)c3cncc(F)c3)nc(C(=O)NCCN3CCOCC3)c2s1 is 33.10

Recorded result, O=C(c1nc(NCc2cncnc2)nc2ccsc12)N1CCCC1 , Ratio: 18.06

P: CNc1cc2nc(N[C@@H](C)c3cccnc3)nc(C(=O)N3CC(O)C3)c2s1
Q: COc1ccc(NC(=O)c2nc(N[C@@H](C)c3ccccn3)nc3ccsc23)cn1
Qu. Return label of the item with the larger Ratio. Candidates: P , Q . API: response body contains the label of the selected item.
Ans. P
(P: 23.69, Q: 14.95)

P: C[C@H](Nc1nc(C(=O)NCc2ccc(C(F)(F)F)nc2)c2sccc2n1)c1ccccn1
Q: C[C@H](Nc1nc(C(=O)N2CCC2)c2sccc2n1)c1cccnc1
R: CO[C@H]1CCN(C(=O)c2nc(N[C@@H](C)c3cccnc3)nc3cc(C)sc23)C1
Qu. Hello, I need these entries ordered by Ratio, highest reading first. Thanks! API: response body holds the labels in the requested order.
Ans. Q, R, P

###

# Assayed System: adenosine A2B receptor (Homo sapiens (Human))
# Assay Comment: Adenosine receptor activity assay (Table 1), A2B activity
# Assay type: biochemical
# Conditions: A2A activity to A2B activity (A2A/A2B)
Assay Endpoint: Ratio

The molecule CNc1cc2nc(N[C@@H](C)c3ccccn3)nc(C(=O)N3CCC3)c2s1 showed Ratio equal to 45.26

1: Cc1cc2nc(N[C@@H](C)c3ccccn3)nc(C(=O)N3CC[C@@H](O)C3)c2s1
2: O=C(c1nc(NCc2cncc(C(F)(F)F)c2)nc2ccsc12)N1CC[C@H](O)C1
3: C[C@H](O)CNC(=O)c1nc(N[C@@H](C)c2cncc(F)c2)nc2cc(C(F)(F)F)sc12
Qu. Task field, ranking: reported Ratio, descending order. Returns: the labels arranged in the requested order.
Ans. 3, 1, 2

###

# Assayed System: adenosine A2B receptor (Homo sapiens (Human), UniProt P29275)
# Assay Comment: Adenosine receptor activity assay (Table 1), A2B activity
# Type: biochemical
# Conditions: read-out: Ave A2B cAMP IC50
Listing of entries alongside the reported IC50.

Solved cases below.
IC50 recorded for this molecule, C[C@H](Nc1nc(C(=O)NCC2CCN(Cc3ccccc3)CC2)c2sccc2n1)c1ccccn1 [Example Z151] , is 0.1 to 0.5 µM

For reference, reported IC50 for Cc1cc2nc(N[C@@H](C)c3cccnc3)nc(C(=O)N3CCC3)c2s1 [Example Z283] stands at < 0.01 µM

Next:
Lab book: IC50 of O=C(c1nc(NCc2cccc(F)c2)nc2ccsc12)N1CCCC1 [Example Z84] noted as 0.01 to 0.05 µM

Recorded result, C[C@H](Nc1nc(C(=O)N2CCC(C(=O)OC(C)(C)C)C2)c2sccc2n1)c1cncc(F)c1 (stereo partly shown) [Example Z354] , IC50: 0.01 to 0.05 µM

###

# Assayed System: adenosine A2B receptor (Homo sapiens (Human))
# Assay Comment: Adenosine receptor activity assay (Table 1), A2B activity
# Format: biochemical
# Conditions: A2A activity to the A2B activity; A2A/A2B
Assay Endpoint: Ratio

Answered examples (3):
Just so you know, measured Ratio for CCNC(=O)c1nc(NCCc2ccc(O)cc2)nc2ccsc12 came out at 0.84

Field Ratio (entry CNC(=O)NCC1CN(C(=O)c2nc(N[C@@H](C)c3cncc(F)c3)nc3ccsc23)C1 ) reads 26.03

Query CC(=O)NCC1CN(C(=O)c2nc(N[C@@H](C)c3cncc(F)c3)nc3ccsc23)C1 yields Ratio of 44.92

1: COc1ccc([C@H](C)Nc2nc(C(=O)NCc3cccnc3)c3sccc3n2)cc1
2: C[C@H](Nc1nc(C(=O)N2CC(NC(=O)c3cccnc3)C2)c2sccc2n1)c1cncc(F)c1
3: Cc1cc2nc(N[C@@H](C)c3cncc(F)c3)nc(C(=O)N3CC(C(N)=O)C3)c2s1
4: C[C@H](Nc1nc(C(=O)N2CC(C(=O)NOC(C)(C)C)C2)c2sccc2n1)c1cncc(F)c1
5: Cc1csc2c(C(=O)N3CCC3)nc(N[C@@H](C)c3cncc(F)c3)nc12
Qu. // smallest Ratio at index 0, largest at the end Labels, requested order.
Ans. 1, 4, 2, 5, 3

###

# Assay Comment: Hepatocyte (Hep) intrinsic clearance, human
# Format: in vitro ADME
# Conditions: hepatocytes
Assay Endpoint: hepatocyte CLint (µL/min/1e6 cells)

Field hepatocyte CLint (entry C[C@H](Nc1nc(C(=O)NC2CCC2)c2sccc2n1)c1ccccn1 ) reads 43.5

P: COc1cc(F)cc(CNc2nc(C(=O)N3CC(O)C3)c3sccc3n2)c1
Q: C[C@H](NC(=O)c1nc(N[C@@H](C)c2ccccn2)nc2ccsc12)c1ccccn1
R: C[C@H](Nc1nc(C(=O)N2CC[C@@H](O)C2)c2sccc2n1)c1cncc(F)c1
S: CNc1cc2nc(N[C@@H](C)c3cccnc3)nc(C(=O)N3CCCC3)c2s1
Qu. Form: Sort by [hepatocyte CLint] Order [ ascending ] Write the labels in rank order as requested.
Ans. R, S, Q, P

###

# Assayed System: adenosine A2A receptor (Homo sapiens (Human))
# Sequence (P29274 whole entry): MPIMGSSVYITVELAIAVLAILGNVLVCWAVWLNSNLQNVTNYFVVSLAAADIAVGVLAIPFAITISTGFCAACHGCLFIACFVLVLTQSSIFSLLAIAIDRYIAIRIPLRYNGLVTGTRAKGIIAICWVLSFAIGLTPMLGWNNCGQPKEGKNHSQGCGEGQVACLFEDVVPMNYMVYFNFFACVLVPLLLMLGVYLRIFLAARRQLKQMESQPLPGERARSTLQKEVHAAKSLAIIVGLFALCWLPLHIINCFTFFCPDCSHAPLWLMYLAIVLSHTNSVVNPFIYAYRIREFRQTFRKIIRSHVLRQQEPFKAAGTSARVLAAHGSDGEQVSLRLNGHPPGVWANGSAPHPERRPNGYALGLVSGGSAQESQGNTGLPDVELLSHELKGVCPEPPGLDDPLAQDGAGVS
# Assay Comment: Adenosine receptor activity assay (Table 1), A2A activity
# Format: biochemical
# Conditions: read-out: Ave A2A cAMP IC50
pIC50: −log10 of the molar value.
Listed molecules paired with reported pIC50

Lab note: measured pIC50 of C[C@H](Nc1nc(C(=O)N[C@@H](C)CO)c2sccc2n1)c1ccccn1 [Example Z181] was 6.30 to 7.00

get_value(item= CO[C@@H]1CCN(C(=O)c2nc(N[C@@H](C)c3cncc(F)c3)nc3ccsc23)C1 [Example Z251] , readout=pIC50) returns 6.30 to 7.00

The molecule CO[C@@H]1CCN(C(=O)c2nc(N[C@@H](C)c3cccnc3)nc3ccsc23)C1 [Example Z19] showed pIC50 equal to 7.30 to 8.00

Memo: CNc1cc2nc(N[C@@H](C)c3ccccn3)nc(C(=O)N3CC[C@@H](O)C3)c2s1 [Example Z176] , reported pIC50: < 6.30

Turning now to a further molecule:
Just so you know, measured pIC50 for C[C@H](Nc1nc(C(=O)N2CC[C@@H](F)C2)c2sccc2n1)c1cccnc1 [Example Z8] came out at 6.30 to 7.00

Recorded values, source patent US11254686B1.
